test: Plasmodium falciparum growth inhibition, primary screen, strain 3D7, DAPI fluorescence, 100 nL (AID 1184);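 also: parasites grown inside human red blood cells in medium with human serum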; settings: P. falciparum 3D7 growth, 3 d, higher = more signal
readout_type: z-score
// keep it numeric: no unit symbol after the value

Examples with their reported z-score follow.
>>> numeric_result("O=C1C2C=CC(C(O)c3cccc4ccccc34)N(Nc3ccccc3F)C2C(=O)N1c1ccccc1 (configuration not stated)")
0.71
>>> numeric_result("CC1(C)[C@@H]2CC(C(O)C3C=CC4C(=O)N(c5ccccc5)C(=O)C4N3Nc3ccc([N+](=O)[O-])cc3)=C[C@H]1C2 (some centres not stated)")
-0.545
>>> numeric_result("CC[C@@H]1C=C(C(=O)O)[C@H](c2ccc(Br)cc2)N1S(=O)(=O)c1ccc(C)cc1")
-0.737
>>> numeric_result("COC(=O)C(CC#Cc1ccc2c(c1)[C@]1(C(=O)N2)[C@H](C(=O)Nc2nc3ccccc3s2)[C@H]2C(=O)O[C@H](c3ccccc3)[C@H](c3ccccc3)N2[C@@H]1c1ccccc1OCCO)C(=O)OC")
-2.02
>>> numeric_result("COC(=O)[C@@]1(Cc2ccccc2)N=C(c2ccc(OCCCO)cc2)O[C@H]1c1ccccc1")
-1.92

input: Please indicate z-score recorded for NCCCCCCNC(=O)[C@@H]1C[C@@H]2C(=O)NCC(=O)N2[C@@H]1c1ccc(O)cc1
output: -0.634

input: Given the molecule COc1ccc([Si](C)(C)[C@@H]2[C@@H](CCO)O[C@]3(C(=O)N(Cc4ccc(N(C=O)c5ccccc5)cc4)c4ccccc43)[C@H]2C)cc1 , write its reported z-score.
output: -2.7

====

experiment: E. coli acrAB mutant growth effects, primary screen, E. coli filamentation inducers, strain DRC39, OD650, 24 h (AID 1178); conditions: higher = more signal, called active from +8 up or from −8 down;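 also: growth measured as culture turbidity by optical density at 650 nm; test concentration not given here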
readout_type: z-score
Keep the answer to the number alone.

Some molecules with recorded z-score:
>>> numeric_result("NC(=O)NCC#Cc1ccc2c(c1)[C@]1(C(=O)N2)[C@H](C(N)=O)[C@H]2C(=O)O[C@H](c3ccccc3)[C@H](c3ccccc3)N2[C@@H]1c1ccc(O)cc1")
0.0883
>>> numeric_result("O=C(c1ccccc1)N1C(=O)[C@@]2(Cc3ccccc31)N=C(c1ccc(OCCCO)cc1)O[C@H]2c1ccccc1")
-0.399
>>> numeric_result("CNS(=O)(=O)c1ccc(C)cc1")
0.738

input: Give me measured z-score, please, for this molecule: [N-]=[N+]=Nc1ccccc1[C@H]1OC(c2ccc(OCCCO)cc2)=N[C@@]1(CCS(=O)(=O)c1ccccc1)C(N)=O
output: 0.981

input: Give reported z-score value for COc1cc(C(O)C2C=CC3C(=O)NC(=O)C3N2Nc2ccccn2)cc(OC)c1OC (stereo not drawn)
output: -1.24

input: Recall and state the measured z-score for CC1CC/C=C\[C@H]2OC34C=CCN(C(C)(C)C)C(=O)[C@H]3N(CCO)C(=O)[C@@H]4C2C(=O)O1 (stereo partly drawn) .
output: -0.344

input: In one line, give reported z-score of the entry COC(=O)[C@@]1(Cc2ccc(OC)cc2)[C@H]2c3cc(C(=O)N4CCCC4)n(Cc4ccc(O)c(OC)c4)c3C[C@H]2CN1C(=O)c1ccccc1 .
output: -0.446

input: Please give measured z-score of the following entry: C=C(COC)/C(=C/C[C@@H](OC(C)=O)c1ccc(OCCO)cc1)c1cnc2ccccc2c1
output: 1.06
